Here, each record is paired with measured IC50 data.
test: Antiproliferative activity against human KB/VCR cells after 72 hrs by MTT assay; assay type: functional, cell-based
endpoint.name: IC50 (nM)

compound_string=COc1cccc2c1C(=O)c1c(O)c3c(c(O)c1C2=O)C[C@@](O)(C(=O)CO)C[C@@H]3O[C@H]1C[C@H](N)[C@H](O)[C@H](C)O1 endpoint_name=IC50 endpoint_value=1290
compound_string=CC[C@]1(O)C[C@H]2CN(CCc3c([nH]c4ccccc34)[C@@](C(=O)OC)(c3cc4c(cc3OC)N(C=O)[C@H]3[C@@](O)(C(=O)OC)[C@H](OC(C)=O)[C@]5(CC)C=CCN6CC[C@]43[C@@H]65)C2)C1 endpoint_name=IC50 endpoint_value=871
compound_string=O=S(=O)(c1ccc(-c2cnc(C3CC3)o2)cc1)N1CCCOc2cc(F)ccc21 endpoint_name=IC50 endpoint_value=12
compound_string=O=S(=O)(c1ccc(-c2cnc(C3CC3)o2)cc1)N1CCCOc2ccc(F)cc21 endpoint_name=IC50 endpoint_value=7

###

test: Solubility of compound in pure water at 25 degC; type: physicochemical
endpoint.name: solubility (mg/mL)

compound_string=O=S(=O)(c1ccc(-c2cnc(C3CC3)o2)cc1)N1CCCOc2ccc(F)cc21 endpoint_name=solubility endpoint_value=0.01

###

assay: Antiproliferative activity against human KB cells after 72 hrs by MTT assay; type: functional, cell-based
endpoint.name: IC50 (nM)

compound_string=O=S(=O)(c1ccc(-c2cnc(C3CC3)o2)cc1)N1CCCOc2cc(F)ccc21 endpoint_name=IC50 measure_unit=nM endpoint_value=15
compound_string=COc1cccc2c1C(=O)c1c(O)c3c(c(O)c1C2=O)C[C@@](O)(C(=O)CO)C[C@@H]3O[C@H]1C[C@H](N)[C@H](O)[C@H](C)O1 endpoint_name=IC50 measure_unit=nM endpoint_value=141
compound_string=CC[C@]1(O)C[C@H]2CN(CCc3c([nH]c4ccccc34)[C@@](C(=O)OC)(c3cc4c(cc3OC)N(C=O)[C@H]3[C@@](O)(C(=O)OC)[C@H](OC(C)=O)[C@]5(CC)C=CCN6CC[C@]43[C@@H]65)C2)C1 endpoint_name=IC50 measure_unit=nM endpoint_value=36
compound_string=O=S(=O)(c1ccc(-c2cnc(C3CC3)o2)cc1)N1CCCOc2ccc(F)cc21 endpoint_name=IC50 measure_unit=nM endpoint_value=7

###

test: Antiproliferative activity against human PC3 cells after 72 hrs by MTT assay; assay type: functional, cell-based; conditions: PC-3, 72 h
pIC50: −log10 of the molar value.
# binarize pIC50: threshold 7 inclusive, high side class 1, low side class 0

compound_string=COc1ccc2c(c1)OCCCN2S(=O)(=O)c1ccc(-c2cnc(C3CC3)o2)cc1 assigned_label="class 0"
compound_string=O=S(=O)(c1ccc(-c2cnc(C3CC3)o2)cc1)N1CCCOc2ccccc21 assigned_label="class 1"
compound_string=Cc1ccc2c(c1)N(S(=O)(=O)c1ccc(-c3cnc(C4CC4)o3)cc1)CCCO2 assigned_label="class 1"

###

test: Antiproliferative activity against human HCT116 cells after 72 hrs by MTT assay; format: functional, cell-based; conditions: HCT-116, 72 h
Here, each record is paired with measured IC50 data.
endpoint.name: IC50

compound=O=S(=O)(c1ccc(-c2cnc(C3CC3)o2)cc1)N1CCOc2ccccc21 endpoint_value="71 nM"
compound=O=S(=O)(c1ccc(-c2cnc(C3CC3)o2)cc1)N1CCCc2ccccc21 endpoint_value="49 nM"
compound=O=S(=O)(c1ccc(-c2cnc(C3CC3)o2)cc1)N1CCCOc2ccc(F)cc21 endpoint_value="24 nM"
compound="O=S(=O)(c1ccc(-c2cnc(C3CC3)o2)cc1)N1CCC[S+]([O-])c2ccccc21 (stereo not given)" endpoint_value="> 1000 nM"
compound=O=S(=O)(c1ccc(-c2cnc(C3CC3)o2)cc1)N1CCCSc2ccccc21 endpoint_value="88 nM"
compound=O=S(=O)(c1ccc(-c2cnc(C3CC3)o2)cc1)N1CCOCc2ccccc21 endpoint_value="187 nM"
compound=Nc1ccc2c(c1)OCCCN2S(=O)(=O)c1ccc(-c2cnc(C3CC3)o2)cc1 endpoint_value="87 nM"
compound=O=S(=O)(c1ccc(-c2cnc(C3CC3)o2)cc1)N1CCCOc2cc(F)ccc21 endpoint_value="30 nM"
compound=O=S(=O)(c1ccc(-c2cnc(C3CC3)o2)cc1)N1CCSc2ccccc21 endpoint_value="45 nM"
compound=Cc1ccc2c(c1)N(S(=O)(=O)c1ccc(-c3cnc(C4CC4)o3)cc1)CCCO2 endpoint_value="29 nM"
compound=O=[N+]([O-])c1ccc2c(c1)OCCCN2S(=O)(=O)c1ccc(-c2cnc(C3CC3)o2)cc1 endpoint_value="145 nM"
compound=O=S(=O)(c1ccc(-c2cnc(C3CC3)o2)cc1)N1CCCCc2ccccc21 endpoint_value="72 nM"
compound=O=S(=O)(c1ccc(-c2cnc(C3CC3)o2)cc1)N1CCCOc2ccc(Cl)cc21 endpoint_value="39 nM"
compound=Cc1ccc2c(c1)OCCCN2S(=O)(=O)c1ccc(-c2cnc(C3CC3)o2)cc1 endpoint_value="766 nM"
compound=COc1ccc2c(c1)OCCCN2S(=O)(=O)c1ccc(-c2cnc(C3CC3)o2)cc1 endpoint_value="223 nM"
compound=O=S(=O)(c1ccc(-c2cnc(C3CC3)o2)cc1)N1CCCOc2ccccc21 endpoint_value="40 nM"
compound=O=[N+]([O-])c1ccc2c(c1)N(S(=O)(=O)c1ccc(-c3cnc(C4CC4)o3)cc1)CCCO2 endpoint_value="133 nM"
compound=CN1CCN(S(=O)(=O)c2ccc(-c3cnc(C4CC4)o3)cc2)c2ccccc2C1 endpoint_value="256 nM"
compound=COc1ccc2c(c1)N(S(=O)(=O)c1ccc(-c3cnc(C4CC4)o3)cc1)CCCO2 endpoint_value="47 nM"
compound=O=S1(=O)CCCN(S(=O)(=O)c2ccc(-c3cnc(C4CC4)o3)cc2)c2ccccc21 endpoint_value="263 nM"
